System: NCI-H522 lung
test-summary: NCI-60 one-dose screen, 48 h
condition-notes: 10 µM unless noted
This is part of a sample that, as a whole, favours compounds with a hit. Of some 83,000 tested, about 20% had one in any assay. Activity calls are given as the source filed them. How the source made its calls: active means growth percent below 10; inactive means the rest.
Write down the outcome that applies. Available outcomes: t = active, f = inactive

{"molecule": "OCCNCCNC(Cc1ccc(Cl)cc1)c1ccccc1 (centres undefined)", "group-label": "f"}
{"molecule": "C#CCO[C@H]1CC(CC#C)(CC#C)C(=O)[C@@H]2[C@H]1[C@H]1C[C@@H]3[C@@]4(C)CCC[C@@](C)(C(=O)OC)[C@@H]4CC[C@@]23C=C1C(C)C", "group-label": "t"}
{"molecule": "O=C(/C=C/c1ccccc1)c1ccc(Nc2nc(Nc3ccc(F)cc3)nc(Nc3ccc(Cl)cc3)n2)cc1", "group-label": "f"}
{"molecule": "CC1(C)CC(=O)c2c(nn(-c3ccc(Br)cc3)c2-c2cn(-c3ccccc3)nc2-c2cccnc2)C1", "group-label": "f"}
{"molecule": "O=C(/C=C/c1cccc(Cl)c1Cl)Nc1ncc(Cc2ccccc2Cl)s1", "group-label": "f"}

// outcome(item) with item = `O=C(Nc1ncccc1OCc1ccccc1)NC1CCCCCC1`
f

// outcome(item) with item = `COc1ccc(/C(C)=C(/c2ccc(OCCCN(C)C)cc2)c2ccc(OC(=O)c3ccccc3)cc2)cc1`
f

// outcome(item) with item = `COc1ccc(/C=C/c2c(C(=O)/C=C/c3ccccc3)c(C)nc3ccccc23)cc1`
t

// outcome(item) with item = `O=C(CI)NC(=O)NC(=O)NCc1ccccc1`
t
